Taken from the supplement of paper PMC8728848.

I'd be grateful if you could share measured glycan array binding signal (z-score) for these entries.
target: Neu5Ac(a2-3)Gal(b1-4)GlcNAc(b1-6)[Gal(b1-3)]GalNAc; assay: glycan array binding signal (z-score within array); higher = stronger binding; details: glycan notation: IUPAC condensed, linker removed
The entries come from a sample that favours the strongest signals as a whole.
Give bare numbers.

binder="Mindin (Homo sapiens), Q9BUD6 (protein) MENPSPAAALGKALCALLLATLGAAGQPLGGESICSARALAKYSITFTGKWSQTAFPKQYPLFRPPAQWSSLLGAAHSSDYSMWRKNQYVSNGLRDFAERGEAWALMKEIEAAGEALQSVHEVFSAPAVPSGTGQTSAELEVQRRHSLVSFVVRIVPSPDWFVGVDSLDLCDGDRWREQAALDLYPYDAGTDSGFTFSSPNFATIPQDTVTEITSSSPSHPANSFYYPRLKALPPIARVTLVRLRQSPRAFIPPAPVLPSRDNEIVDSASVPETPLDCEVSLWSSWGLCGGHCGRLGTKSRTRYVRVQPANNGSPCPELEEEAECVPDNCV" assayresult=-0.36
binder="EULS2 M4 (Oryza sativa) (protein) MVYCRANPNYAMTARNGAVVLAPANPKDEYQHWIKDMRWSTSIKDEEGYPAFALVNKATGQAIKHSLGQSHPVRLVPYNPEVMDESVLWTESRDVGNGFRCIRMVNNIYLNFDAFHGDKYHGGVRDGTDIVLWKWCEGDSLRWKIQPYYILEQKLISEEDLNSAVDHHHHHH" assayresult=-1.27
binder="DC-ASGPR L+GEE (Homo sapiens) (protein) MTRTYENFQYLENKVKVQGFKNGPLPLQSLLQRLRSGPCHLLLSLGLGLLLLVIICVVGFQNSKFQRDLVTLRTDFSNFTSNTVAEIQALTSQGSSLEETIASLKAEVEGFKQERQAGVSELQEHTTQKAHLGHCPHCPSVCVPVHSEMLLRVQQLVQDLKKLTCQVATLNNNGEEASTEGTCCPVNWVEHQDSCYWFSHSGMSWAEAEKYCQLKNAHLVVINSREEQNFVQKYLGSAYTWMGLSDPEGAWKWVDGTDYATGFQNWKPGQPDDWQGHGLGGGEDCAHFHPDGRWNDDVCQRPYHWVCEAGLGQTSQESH" assayresult=-0.019
binder="MpAFP NterminalRI GFP (Marinomonas primoryensis) (protein) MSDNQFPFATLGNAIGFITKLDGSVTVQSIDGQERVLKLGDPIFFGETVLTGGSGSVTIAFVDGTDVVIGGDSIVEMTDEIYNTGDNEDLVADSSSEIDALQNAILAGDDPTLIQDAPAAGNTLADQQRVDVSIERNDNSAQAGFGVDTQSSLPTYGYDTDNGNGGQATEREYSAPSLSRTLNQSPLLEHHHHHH" assayresult=3.31

Please turn your attention to the following entry.
Which glycan array binding signal (z-score) reading was recorded for the binder UEA-I (Ulex europaeus), P22972 (protein) SDDLSFKFKNFSQNGKDLSFQGDASVIETGVLQLNKVGNNLPDETGGIARYIAPIHIWNCNTGEVASFITSFSFFMETSANPKAATDGLTFFLAPPDSPLRRAGGYFGLFEDTKDNDSSYQTVAVEFDTIGSPVNFDDPGFPHIGIDVNRVKSINAERWNKRYGLNNVANVEIIYEASSKTLTASLTYPSDQTSISVTSIVDLKEILPEWVSVGFSGGTYIGRQATHEVLNWYFTSNLIN ?
-0.183
